Structures can show the parent of a compound that is named as a salt.
Listed here: compounds with reported CYP2C19 AC50 (half-maximal activity concentration) for human CYP2C19 (Homo sapiens).

Past entries and their recorded results:
- N=C(N)NC(=O)Cc1c(Cl)cccc1Cl [Guanfacine hydrochloride]: Inactive
- CCS(=O)(=O)c1ccc(OC)c(C(=O)OC)c1 [Methyl 5-(ethylsulfonyl)-o-anisate]: Inconclusive inhibitor
- C/C=C(\C)C(=O)OCc1ccccc1 [Benzyl tiglate]: Inconclusive inhibitor
- O=C(O)c1cc2ccccc2nc1C(=O)O: Inactive
- COC(=O)Nc1nc2ccc(C(=O)c3cccs3)cc2[nH]1: Inconclusive inhibitor
- CCC(=O)OCCOc1ccccc1 [Phenoxyethyl propionate]: Inconclusive inhibitor
- CCOc1ccccc1C(N)=O [2-Ethoxybenzamide]: Inactive
- O=C(O)c1ccccc1C(c1ccc(O)cc1)c1ccc(O)cc1: Inactive

As a next step, examine the compound that follows.
Tested system human CYP2C19 (Homo sapiens); CYP2C19 AC50 (half-maximal activity concentration) recorded for COC(=O)c1cccc(C(=O)OC)c1 [Dimethyl isophthalate] was Inconclusive inhibitor

* * *

Structures can show the parent of a compound that is named as a salt.
In what follows, each item is paired with its CYP3A4 IC50 for UniProtKB P08684.
Sequence (P08684 whole entry): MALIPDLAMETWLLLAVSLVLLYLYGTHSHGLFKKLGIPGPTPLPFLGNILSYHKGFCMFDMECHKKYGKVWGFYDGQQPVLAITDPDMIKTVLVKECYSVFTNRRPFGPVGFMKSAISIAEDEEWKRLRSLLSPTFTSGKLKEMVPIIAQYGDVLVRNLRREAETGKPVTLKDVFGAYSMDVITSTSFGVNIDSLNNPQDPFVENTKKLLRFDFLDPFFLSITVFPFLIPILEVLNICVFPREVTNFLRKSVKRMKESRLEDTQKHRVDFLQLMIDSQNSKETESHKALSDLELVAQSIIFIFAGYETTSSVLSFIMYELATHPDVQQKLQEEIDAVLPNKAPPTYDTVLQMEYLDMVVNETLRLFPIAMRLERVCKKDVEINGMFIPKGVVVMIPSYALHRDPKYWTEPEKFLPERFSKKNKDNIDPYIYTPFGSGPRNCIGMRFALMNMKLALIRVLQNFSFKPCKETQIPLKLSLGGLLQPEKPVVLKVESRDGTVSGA

Some molecules with known CYP3A4 IC50 results, for comparison:
• Cc1nc2n(c(=O)c1CCN1CCC(C(=O)c3ccc(F)cc3)CC1)CCS2 [Setoperone] = Inactive
• c1ccc2cc3c(ccc4ccccc43)cc2c1 [Benz(a)anthracene] = Inactive
• CCN(CCCc1ccccc1)CCCc1ccccc1 [Alverine citrate] = 14.43 ± 1.84 (65 ± 11) µM
• COC1CC(=C(c2cccs2)c2cccs2)C[N+](C)(C)C1 (centres unmarked) [Timepidium bromide] = Inactive
• CCN(CC)CCNc1ccc(CO)c2sc3ccccc3c(=O)c12 [Hycanthone] = Inactive
• CN1CCC(N(Cc2ccccc2)c2ccccc2)CC1 [Bamipine] = Inactive

Record summary for C1CCC(NC2CCCCC2)CC1 [Dicyclohexylamine] : reported CYP3A4 IC50 = Inactive

Summary for this molecule, CCCC[P+](C)(CCCC)CCCC.COS(=O)(=O)[O-] [Tributylmethylphosphonium methyl sulfate] : CYP3A4 IC50 is Inactive

Quick note, CYP3A4 IC50 for O=C(CCCN1CCC2(CC1)C(=O)NCN2c1ccccc1)c1ccc(F)cc1 [Spiperone] landed at Inactive

Query c1ccc2cc3ccccc3cc2c1 [Anthracene] yields CYP3A4 IC50 of Inactive

Query CCCCC(CC)CNCC(CC)CCCC (centres unmarked) [2,2'-Diethylhexylamine] yields CYP3A4 IC50 of Inactive

In plain terms, CCN(CC)CCCN(c1ccccc1)C1Cc2ccccc2C1 [Aprindine hydrochloride] has a documented CYP3A4 IC50 of Inactive

* * *

Target: human CYP2C19 (Homo sapiens)
Sequence (P33261 whole entry): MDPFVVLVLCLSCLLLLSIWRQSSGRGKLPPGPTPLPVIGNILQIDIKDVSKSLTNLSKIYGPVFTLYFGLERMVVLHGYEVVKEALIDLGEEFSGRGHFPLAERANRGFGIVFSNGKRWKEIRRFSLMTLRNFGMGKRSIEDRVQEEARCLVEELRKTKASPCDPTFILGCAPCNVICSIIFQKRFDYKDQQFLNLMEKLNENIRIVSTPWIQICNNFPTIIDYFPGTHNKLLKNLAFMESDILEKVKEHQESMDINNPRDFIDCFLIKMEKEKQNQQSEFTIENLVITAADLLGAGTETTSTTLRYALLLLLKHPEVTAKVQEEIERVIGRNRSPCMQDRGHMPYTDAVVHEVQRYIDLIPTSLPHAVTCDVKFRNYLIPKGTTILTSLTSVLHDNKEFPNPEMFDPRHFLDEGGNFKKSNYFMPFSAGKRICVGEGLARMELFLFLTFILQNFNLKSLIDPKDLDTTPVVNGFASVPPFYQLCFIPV
Structures can show the parent of a compound that is named as a salt.
EXPERIMENTAL_ENDPOINT: CYP2C19 AC50 (half-maximal activity concentration)

Example entries and their recorded answers appear below.
• O=[N+]([O-])c1c(Cl)c(Cl)c(Cl)c(Cl)c1Cl = Inconclusive inhibitor
• Clc1nnc(Cl)c2ccccc12 = Inactive
• O=C(Nc1ccc([N+](=O)[O-])cc1)Nc1ccc([N+](=O)[O-])cc1 = Inactive
• COC(=O)CCCCCCCC(=O)OC [Dimethyl nonanedioate] = Inconclusive inhibitor
• Cc1cc(C)nc(NS(=O)(=O)c2ccc(N)cc2)n1 = Inactive
• CCNc1nc(Cl)nc(NCC)n1 = Inactive

Note to self: CYP2C19 AC50 (half-maximal activity concentration) of COc1cccc(O)c1 with human CYP2C19 (Homo sapiens) was Inactive

The recorded CYP2C19 AC50 (half-maximal activity concentration) with human CYP2C19 (Homo sapiens) for O=C(O)C(F)(F)C(F)(F)C(F)(F)C(F)(F)C(F)(F)C(F)(F)C(F)(F)F was Inactive

Item CCCCc1c(C)nc(NCC)[nH]c1=O was tested on human CYP2C19 (Homo sapiens); the reported CYP2C19 AC50 (half-maximal activity concentration) is Inconclusive inhibitor

Item CCOC(=O)c1ccc(O)c(O)c1 [Ethyl protocatechuate] was tested on human CYP2C19 (Homo sapiens); the reported CYP2C19 AC50 (half-maximal activity concentration) is Inactive

Form: item CN(CCOc1ccc(CC2SC(=O)NC2=O)cc1)c1ccccn1 (centres unmarked) [Rosiglitazone maleate] ; test system human CYP2C19 (Homo sapiens); CYP2C19 AC50 (half-maximal activity concentration): Inconclusive inhibitor

Per the reported human CYP2C19 (Homo sapiens) data, O=C(O)c1cccc(Oc2ccccc2)c1 has CYP2C19 AC50 (half-maximal activity concentration) of Inactive

The value of CYP2C19 AC50 (half-maximal activity concentration) recorded for CC(=O)[C@H]1[C@H](C#N)C[C@H]2[C@@H]3CC=C4C[C@@H](O)CC[C@]4(C)[C@H]3CC[C@@]21C when tested on human CYP2C19 (Homo sapiens) reads Inactive

Field CYP2C19 AC50 (half-maximal activity concentration) (system: human CYP2C19 (Homo sapiens)) for entry CCC(C)(C)C1CCC(O)CC1 (centres unmarked) = Inactive

Summary line: O=C(O)c1ccc(OCCCOc2ccc(C(=O)O)cc2)cc1 , human CYP2C19 (Homo sapiens), reported CYP2C19 AC50 (half-maximal activity concentration) = Inactive

Tested system human CYP2C19 (Homo sapiens); CYP2C19 AC50 (half-maximal activity concentration) recorded for O=C(Cl)c1ccc(F)c(Cl)c1 [3-Chloro-4-fluorobenzoyl chloride] was Inconclusive inhibitor

With human CYP2C19 (Homo sapiens) as the test system, Oc1ccc(Cc2ccc(O)cc2)cc1 [Bis(4-hydroxyphenyl)methane] showed CYP2C19 AC50 (half-maximal activity concentration) of Inconclusive inhibitor

Measured CYP2C19 AC50 (half-maximal activity concentration) for this entry Cc1cc(=O)oc2cc(O)ccc12 on human CYP2C19 (Homo sapiens): Inactive
